experiment: Competitive inhibition of MDCK infected Influenza A virus A/Taiwan/3446/2002(H3N2) neuraminidase using MU-NANA as substrate preincubated for 30 mins followed by substrate addition measured after 1 hr by spectrofluorometric method
pIC50 values by entry
API: returns pIC50 as number; meaning -log10 of concentration in mol/L.

Record excerpt, results attached:
Kindly note the recorded pIC50 for CC(=O)N[C@H]1C([C@H](O)[C@H](O)CO)OC(C(=O)O)=C[C@@H]1NC(=N)NC(=O)CCn1cc(-c2ccccc2)nn1 (some centres undefined) , which is 6.87

Kindly note the recorded pIC50 for CC(=O)N[C@H]1C([C@H](O)[C@H](O)CO)OC(C(=O)O)=C[C@@H]1NC(=N)NC(=O)CCCn1cc(-c2ccccc2)nn1 (some centres undefined) , which is 6.64

Kindly note the recorded pIC50 for CC(=O)N[C@H]1C([C@H](O)[C@H](O)CO)OC(C(=O)O)=C[C@@H]1NC(=N)NC(=O)Cn1cc(-c2ccccc2)nn1 (some centres undefined) , which is 8.10

Attention now shifts to the item below.
Kindly note the recorded pIC50 for CC(=O)N[C@H]1C([C@H](O)[C@H](O)CO)OC(C(=O)O)=C[C@@H]1NC(=N)NC(=O)CCCCn1cc(-c2ccccc2)nn1 (some centres undefined) , which is 6.96
